experiment_notes: pH measurement of 0.1 M aqueous solutions
Format: physicochemical
settings: 0.1 M in millipore water, r.t., average of at least three measurements
Each entry below carries its reported pH values compound.
observable: pH values compound

>>> experimental_result("CC(=O)O.CC(=O)O.CC(=O)[O-].CC(=O)[O-].[Mg+2] [MgAc-HAc [2]]")
5.06
>>> experimental_result("CC(O)C(=O)O.CC(O)C(=O)O.O=C([O-])/C=C/C(=O)[O-].[Mg+2] [MgFum-HLac [2]]")
3.69
>>> experimental_result("CCC(=O)O.CCC(=O)O.O=C([O-])C(O)C(O)C(=O)[O-].[Ca+2] (centres unmarked) [CaT-HProp [2]]")
3.71
>>> experimental_result("CCC(=O)O.CCC(=O)O.O=C1OC(C(O)CO)C([O-])=C1O.O=C1OC(C(O)CO)C([O-])=C1O.[Ca+2] (centres unmarked) [CaAsc-HProp [2]]")
4.88
>>> experimental_result("CC(=O)O.CC(=O)O.CC(=O)[O-].CC(=O)[O-].[Ca+2] [CaAc-HAc [2], calcium acetate with loaded acetic acid]")
5.05
>>> experimental_result("CC(O)C(=O)O.CC(O)C(=O)O.CC(O)C(=O)[O-].CC(O)C(=O)[O-].[Ca+2] (centres unmarked) [CaLac-HLac [2]]")
3.45
>>> experimental_result("CC(=O)O.CC(=O)O.O=C1OC(C(O)CO)C([O-])=C1O.O=C1OC(C(O)CO)C([O-])=C1O.[Ca+2] (centres unmarked) [CaAsc-HAc [2]]")
4.42
>>> experimental_result("CC(=O)O.CCC(=O)O.O=C([O-])C(O)C(O)C(=O)[O-].[Ca+2] (centres unmarked) [CaT-HAc-HProp [1,1]]")
3.63
>>> experimental_result("CC(=O)O.CC(=O)O.CC(=O)O.CC(=O)[O-].CC(=O)[O-].[Ca+2] [CaAc-HAc [3]]")
4.62
>>> experimental_result("CC(=O)O.CC(=O)O.CC(=O)O.O=C1OC(C(O)CO)C([O-])=C1O.O=C1OC(C(O)CO)C([O-])=C1O.[Ca+2] (centres unmarked) [CaAsc-HAc [3]]")
4.22
>>> experimental_result("CCC(=O)O.CCC(=O)O.O=C([O-])CC(O)C(=O)[O-].[Ca+2] (centres unmarked) [CaM-HProp [2]]")
4.45
>>> experimental_result("CC(=O)O.CC(=O)O.O=C([O-])CCC(=O)[O-].[Mg+2] [MgSuc-HAc [2]]")
4.69
>>> experimental_result("CC(=O)O.CC(=O)O.CC(O)C(=O)[O-].CC(O)C(=O)[O-].[Ca+2] (centres unmarked) [CaLac-HAc [2]]")
4.58
>>> experimental_result("CC(=O)O.CC(O)C(=O)O.CCC(=O)O.O=C([O-])CC(O)C(=O)[O-].[Ca+2] (centres unmarked) [CaMa-HAc-HProp-HLac [1,1,1]]")
4.97
>>> experimental_result("CC(=O)O.CC(=O)O.O=C([O-])CC(O)C(=O)[O-].[Ca+2] (centres unmarked) [CaMa-HAc [2]]")
4.53
>>> experimental_result("O=CO.O=CO.O=C[O-].O=C[O-].[Ca+2] [CaFo-HFo [2], calcium formate with loaded formic acid]")
5.19
>>> experimental_result("CC(O)C(=O)O.CC(O)C(=O)O.O=C([O-])C(O)C(O)C(=O)[O-].[Ca+2] (centres unmarked) [CaT-HLac [2], calcium tartrate with loaded lactic acid]")
3.27
